Measured Ki by item
Target: Muscarinic acetylcholine receptor M1 (Homo sapiens, UniProt P11229)
Sequence (P11229 whole entry): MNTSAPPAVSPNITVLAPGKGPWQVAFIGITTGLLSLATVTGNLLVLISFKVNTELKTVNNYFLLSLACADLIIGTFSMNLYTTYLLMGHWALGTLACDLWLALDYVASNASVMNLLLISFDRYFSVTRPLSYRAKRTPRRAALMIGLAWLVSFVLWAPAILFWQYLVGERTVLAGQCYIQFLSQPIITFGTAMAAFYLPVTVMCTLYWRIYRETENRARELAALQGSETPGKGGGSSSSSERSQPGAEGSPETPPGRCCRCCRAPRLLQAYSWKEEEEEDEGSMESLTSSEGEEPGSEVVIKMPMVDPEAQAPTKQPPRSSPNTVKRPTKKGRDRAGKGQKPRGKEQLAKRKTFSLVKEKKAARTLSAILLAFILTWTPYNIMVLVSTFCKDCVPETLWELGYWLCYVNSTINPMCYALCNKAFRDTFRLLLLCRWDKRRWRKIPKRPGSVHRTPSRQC
// units = nM; emit number, no label

For CN1CCC=C(c2nsnc2OCCOCCOCCOCCO)C1 the compound record lists Ki as 1000

For COc1nsnc1OCCOCCOc1nsnc1C1=CCCN(C)C1 the compound record lists Ki as 794

For COc1nsc(OCCCOCCCOCCCOc2nsnc2C2=CCCN(C)C2)n1 the compound record lists Ki as 63.1

New cases:
For COc1nsnc1OCCOCCOCCOCCOCCOc1nsnc1C1=CCCN(C)C1 the compound record lists Ki as 398

For COc1nsnc1OCCOCCOCCOCCOc1nsnc1C1=CCCN(C)C1 the compound record lists Ki as 50.1

* * *

Target: Muscarinic acetylcholine receptor M2 (Homo sapiens)
Sequence (whole entry): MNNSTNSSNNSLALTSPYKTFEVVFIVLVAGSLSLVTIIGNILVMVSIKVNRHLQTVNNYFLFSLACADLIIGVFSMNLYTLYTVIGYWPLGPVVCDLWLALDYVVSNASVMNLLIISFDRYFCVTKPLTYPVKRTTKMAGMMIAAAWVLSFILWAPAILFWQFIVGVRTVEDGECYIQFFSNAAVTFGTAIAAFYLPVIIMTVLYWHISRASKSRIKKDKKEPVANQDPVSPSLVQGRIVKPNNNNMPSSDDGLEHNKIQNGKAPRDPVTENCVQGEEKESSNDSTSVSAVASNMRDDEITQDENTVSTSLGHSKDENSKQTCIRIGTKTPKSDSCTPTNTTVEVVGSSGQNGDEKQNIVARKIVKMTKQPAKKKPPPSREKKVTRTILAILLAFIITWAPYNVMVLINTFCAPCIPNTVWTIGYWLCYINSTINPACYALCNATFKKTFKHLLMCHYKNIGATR
Assay: Activity at human M2 receptor assessed as inhibition of forskolin-stimulated cAMP accumulation relative to carbachol
Assay type: functional
Measured Imax by item

Some solved entries appear below for comparison.
For COc1nsnc1OCCOCCOCCOc1nsnc1C1=CCCN(C)C1 the compound record lists Imax as 110%

For CN1CCC=C(c2nsnc2OCCOCCOCCOCCO)C1 the compound record lists Imax as 86%

For COc1nsnc1OCCOCCOc1nsnc1C1=CCCN(C)C1 the compound record lists Imax as 77%

New cases:
For COc1nsnc1OCCOCCOCCOCCOCCOc1nsnc1C1=CCCN(C)C1 the compound record lists Imax as 98%

For COc1nsnc1OCCOCCOCCOCCOc1nsnc1C1=CCCN(C)C1 the compound record lists Imax as 120%

* * *

Biological target: Muscarinic acetylcholine receptor M1 (Homo sapiens, UniProt P11229)
Sequence (P11229 whole entry): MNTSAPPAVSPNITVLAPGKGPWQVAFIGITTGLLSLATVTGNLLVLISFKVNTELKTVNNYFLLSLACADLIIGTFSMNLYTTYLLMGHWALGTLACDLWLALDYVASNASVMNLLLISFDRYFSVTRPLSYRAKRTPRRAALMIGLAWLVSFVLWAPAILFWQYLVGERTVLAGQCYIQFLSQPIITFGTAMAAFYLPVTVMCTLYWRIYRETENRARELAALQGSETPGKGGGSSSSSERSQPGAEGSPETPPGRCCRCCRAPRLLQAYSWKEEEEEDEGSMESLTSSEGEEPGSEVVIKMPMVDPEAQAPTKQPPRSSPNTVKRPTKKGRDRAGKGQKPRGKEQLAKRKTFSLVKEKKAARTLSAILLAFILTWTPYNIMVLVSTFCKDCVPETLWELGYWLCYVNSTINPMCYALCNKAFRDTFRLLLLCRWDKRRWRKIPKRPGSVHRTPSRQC
Assay: Agonist activity at human M1 receptor expressed in A9 L cells assessed as stimulation of phosphoinositide hydrolysis
Measured pEC50 by item
# pEC50 = -log10(concentration in molar units)

For COc1nsnc1OCCOCCOc1nsnc1C1=CCCN(C)C1 the compound record lists pEC50 as 6.00

For COc1nsnc1OCCOCCOCCOCCOCCOc1nsnc1C1=CCCN(C)C1 the compound record lists pEC50 as 6.60

For COc1nsnc1OCCCOCCCOCCCOc1nsnc1C1=CCCN(C)C1 the compound record lists pEC50 as 5.50

For COc1nsc(OCCCOCCCOCCCOc2nsnc2C2=CCCN(C)C2)n1 the compound record lists pEC50 as 6.30

For CN1CCC=C(c2nsnc2OCCOCCOCCOCCO)C1 the compound record lists pEC50 as 6.10

Now let's try a different one.
For COc1nsnc1OCCOCCOCCOc1nsnc1C1=CCCN(C)C1 the compound record lists pEC50 as 6.10

* * *

target: Muscarinic acetylcholine receptor M1/M5 chimeric protein (Homo sapiens, UniProt P08912+P11229); experiment: Inhibition of [3H](R)-QNB binding to human M1/M5(o3) chimeric receptor expressed in A9 L cells; type: cell-based, A9L
measured quantity: Ki
Report as: number unit

For CN1CCC=C(c2nsnc2OCCOCCOCCOCCOc2nsnc2C2=CCCN(C)C2)C1 the compound record lists Ki as 20 nM

Now let's try a different one.
For COc1nsnc1OCCOCCOCCOCCOc1nsnc1C1=CCCN(C)C1 the compound record lists Ki as 126 nM

* * *

Measured pIC50 by item
target: Muscarinic acetylcholine receptor M2 (Homo sapiens, UniProt P08172); test: Activity at human M2 receptor assessed as inhibition of forskolin-stimulated cAMP accumulation; assay type: functional
# pIC50 = -log10(concentration in molar units)

Some solved entries appear below for comparison.
Measured pIC50 (Muscarinic acetylcholine receptor M2 (Homo sapiens, UniProt P08172)), entry COc1nsnc1OCCOCCOCCOc1nsnc1C1=CCCN(C)C1 : 5.50

Measured pIC50 (Muscarinic acetylcholine receptor M2 (Homo sapiens, UniProt P08172)), entry CN1CCC=C(c2nsnc2OCCOCCOCCOCCO)C1 : 8.10

Measured pIC50 (Muscarinic acetylcholine receptor M2 (Homo sapiens, UniProt P08172)), entry COc1nsnc1OCCOCCOc1nsnc1C1=CCCN(C)C1 : 7.10

New cases:
Measured pIC50 (Muscarinic acetylcholine receptor M2 (Homo sapiens, UniProt P08172)), entry COc1nsnc1OCCOCCOCCOCCOCCOc1nsnc1C1=CCCN(C)C1 : 6.40

* * *

Target protein (sequence): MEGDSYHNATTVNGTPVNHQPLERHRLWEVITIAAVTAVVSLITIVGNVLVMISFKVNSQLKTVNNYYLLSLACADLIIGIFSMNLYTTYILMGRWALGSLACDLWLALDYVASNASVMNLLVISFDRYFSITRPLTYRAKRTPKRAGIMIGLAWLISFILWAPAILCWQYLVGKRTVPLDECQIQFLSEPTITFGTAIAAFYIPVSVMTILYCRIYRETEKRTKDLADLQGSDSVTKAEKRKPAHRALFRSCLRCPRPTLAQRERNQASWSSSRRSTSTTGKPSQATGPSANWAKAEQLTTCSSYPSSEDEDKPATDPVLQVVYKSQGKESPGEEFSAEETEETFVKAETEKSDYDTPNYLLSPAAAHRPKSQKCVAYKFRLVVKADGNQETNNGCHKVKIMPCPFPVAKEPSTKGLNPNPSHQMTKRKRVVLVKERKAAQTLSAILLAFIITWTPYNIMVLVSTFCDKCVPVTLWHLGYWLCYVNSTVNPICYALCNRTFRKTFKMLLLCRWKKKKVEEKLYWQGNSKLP
measured quantity: Ki (nM)
// units = nM; emit number, no label

Some solved entries appear below for comparison.
For COc1nsnc1OCCOCCOCCOc1nsnc1C1=CCCN(C)C1 the compound record lists Ki as 631

For COc1nsnc1OCCOCCOc1nsnc1C1=CCCN(C)C1 the compound record lists Ki as 251

Now let's try a different one.
For COc1nsnc1OCCCOCCCOCCCOc1nsnc1C1=CCCN(C)C1 the compound record lists Ki as 100

* * *

biological target: Muscarinic acetylcholine receptor M1/M5 chimeric protein (Homo sapiens, UniProt P08912+P11229); assay: Agonist activity at human M1/M5(o2) chimeric receptor expressed in A9 L cells assessed as stimulation of phosphoinositide hydrolysis; format: functional, cell-based, L929
measured quantity: EC50 (nM)
// units = nM; emit number, no label

For CN1CCC=C(c2nsnc2OCCOCCOCCOCCOc2nsnc2C2=CCCN(C)C2)C1 the molecule record lists EC50 as 79.4

Now let's try a different one.
For COc1nsnc1OCCOCCOCCOCCOc1nsnc1C1=CCCN(C)C1 the molecule record lists EC50 as 79.4
